Measured IC50, listed per entry for reference.
- tested system: P2X2/3 (Homo sapiens, UniProt P56373+Q9UBL9)
- Sequence (Q9UBL9 1-471): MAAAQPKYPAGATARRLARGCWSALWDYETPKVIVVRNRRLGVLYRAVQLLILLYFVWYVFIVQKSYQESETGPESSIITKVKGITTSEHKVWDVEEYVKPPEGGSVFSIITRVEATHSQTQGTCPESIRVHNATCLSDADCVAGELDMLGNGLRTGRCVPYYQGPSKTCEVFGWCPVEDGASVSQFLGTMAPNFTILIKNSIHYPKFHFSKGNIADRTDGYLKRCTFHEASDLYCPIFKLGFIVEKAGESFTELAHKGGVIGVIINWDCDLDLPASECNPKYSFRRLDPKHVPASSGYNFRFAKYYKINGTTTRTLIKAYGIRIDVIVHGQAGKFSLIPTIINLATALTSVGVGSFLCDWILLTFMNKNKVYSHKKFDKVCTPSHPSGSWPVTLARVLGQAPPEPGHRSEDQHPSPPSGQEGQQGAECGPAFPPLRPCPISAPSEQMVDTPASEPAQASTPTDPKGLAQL
- Sequence (P56373 1-397): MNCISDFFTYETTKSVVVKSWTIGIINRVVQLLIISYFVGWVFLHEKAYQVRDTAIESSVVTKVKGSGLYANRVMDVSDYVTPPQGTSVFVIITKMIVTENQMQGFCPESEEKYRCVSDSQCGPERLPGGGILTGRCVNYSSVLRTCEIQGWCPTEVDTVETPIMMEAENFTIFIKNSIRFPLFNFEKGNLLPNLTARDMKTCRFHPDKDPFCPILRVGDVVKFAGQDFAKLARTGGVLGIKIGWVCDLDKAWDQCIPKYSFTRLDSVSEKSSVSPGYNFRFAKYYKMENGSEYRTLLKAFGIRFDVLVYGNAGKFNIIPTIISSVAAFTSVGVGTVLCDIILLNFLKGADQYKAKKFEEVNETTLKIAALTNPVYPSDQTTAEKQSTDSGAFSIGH
- assay comment: P2X2/3 FLIPR intracellular calcium assay
- measurement parameters: agonist at EC75, species (human or rat) not given

Worked set:
Cc1ccc(CNC(=O)c2cc(-n3nnnc3CO)c3ncc(-c4ccc(C)s4)n3c2)cn1
100 to 1000 nM
CCc1cnnn1-c1cc(C(=O)N[C@H](c2nnc[nH]2)C(C)C)cn2c(-c3ccc(C)s3)cnc12
100 to 1000 nM
Cc1ncc(CNC(=O)c2cc(-n3nnnc3C(F)F)c3ncc(-c4ccc(Cl)s4)n3c2)cn1
100 to 1000 nM

Form field: IC50 recorded for CC[C@H](NC(=O)c1cc(-c2c(C)noc2C)c2ncc(-c3ccc(C)s3)n2c1)c1nnc[nH]1 with P2X2/3 (Homo sapiens, UniProt P56373+Q9UBL9) (enter value) 1 to 100 nM

And Cc1ccc(-c2cnc3c(Nc4ccccc4)cc(C(=O)NCc4ccn(C)c(=O)c4)cn23)s1 ? 1000 to 10000 nM
